Across several publications, the following IC50 results were reported for Cytochrome P450 2D6 (Homo sapiens).

- compound: "Cc1ncccc1-n1c(=O)c2nn(C)cc2c2ccc(C(F)(F)F)nc21 (single isomer, unassigned)"
  IC50: "> 10 µM"
- compound: "C[C@H]1CN(c2cc(F)c(OCCO)c(Cl)c2)[C@H]2CCCC[C@H]2N1"
  IC50: "59.1 µM"
- compound: "CC1(C)CN(c2ccc(OCCO)c(Cl)c2)[C@@H]2CCCC[C@H]2N1"
  IC50: "> 100 µM"
- compound: "C[C@@H]1Cc2c([nH]c3ccc(F)cc23)[C@@H](c2c(F)cc(N[C@H]3CCN(CCCF)C3)cc2F)N1CC(F)(F)F"
  IC50: "34.1 µM"
- compound: "Cn1cc2c(n1)c(=O)n(-c1cccc3[nH]ncc13)c1nc(C(F)(F)F)ccc21"
  IC50: "> 30 µM"
- compound: "COc1cc(N2CC(C)(C)N[C@H]3CCCC[C@@H]32)ccc1OC(F)(F)CO"
  IC50: "> 100 µM"
- compound: "Cn1cc2c(n1)c(=O)n(-c1cccnc1)c1cc(Cl)ccc21"
  IC50: "> 10 µM"
- compound: "Cn1cc2c(n1)c(=O)n(-c1cccc3[nH]ncc13)c1cc(Cl)ccc21"
  IC50: "> 10 µM"
- compound: "CC(C)(O)c1ccc(-c2cnc(C(C)(C)O)c(N)c2)cc1N"
  IC50: "> 50 µM"
- compound: "Cc1cc(N2CC(C)(C)N[C@H]3CCCC[C@@H]32)ccc1OC(F)(F)CO"
  IC50: "> 100 µM"
- compound: "Fc1cc(Cl)c2nc(Nc3ccc(C4(C(F)(F)F)CC4)cc3)ccc2c1"
  IC50: "48 µM"
- compound: "CC1(C)CN(c2ccc(OC(F)(F)CO)cc2)[C@H]2CCCC[C@@H]2N1"
  IC50: "> 100 µM"
- compound: "Cc1cc(N2CC(C)(C)N[C@@H]3CCCC[C@H]32)ccc1OC(F)(F)CO"
  IC50: "> 100 µM"
- compound: "CC1(C)CN(c2cc(F)c(OCCO)c(F)c2)[C@H]2CCCC[C@@H]2N1"
  IC50: "> 100 µM"
- compound: "CN1[C@H]2CCCC[C@@H]2N(c2ccc(OC(F)(F)CO)cc2)CC1(C)C"
  IC50: "> 100 µM"
